Target: angiotensin I converting enzyme (ACE) (Oryctolagus cuniculus, UniProt P12822)
Construct: prepared from the lungs of albino rabbit according to the method described by Wallace et al; from tissue; host or cells: lungs of albino rabbit
Sequence (P12822 34-1310): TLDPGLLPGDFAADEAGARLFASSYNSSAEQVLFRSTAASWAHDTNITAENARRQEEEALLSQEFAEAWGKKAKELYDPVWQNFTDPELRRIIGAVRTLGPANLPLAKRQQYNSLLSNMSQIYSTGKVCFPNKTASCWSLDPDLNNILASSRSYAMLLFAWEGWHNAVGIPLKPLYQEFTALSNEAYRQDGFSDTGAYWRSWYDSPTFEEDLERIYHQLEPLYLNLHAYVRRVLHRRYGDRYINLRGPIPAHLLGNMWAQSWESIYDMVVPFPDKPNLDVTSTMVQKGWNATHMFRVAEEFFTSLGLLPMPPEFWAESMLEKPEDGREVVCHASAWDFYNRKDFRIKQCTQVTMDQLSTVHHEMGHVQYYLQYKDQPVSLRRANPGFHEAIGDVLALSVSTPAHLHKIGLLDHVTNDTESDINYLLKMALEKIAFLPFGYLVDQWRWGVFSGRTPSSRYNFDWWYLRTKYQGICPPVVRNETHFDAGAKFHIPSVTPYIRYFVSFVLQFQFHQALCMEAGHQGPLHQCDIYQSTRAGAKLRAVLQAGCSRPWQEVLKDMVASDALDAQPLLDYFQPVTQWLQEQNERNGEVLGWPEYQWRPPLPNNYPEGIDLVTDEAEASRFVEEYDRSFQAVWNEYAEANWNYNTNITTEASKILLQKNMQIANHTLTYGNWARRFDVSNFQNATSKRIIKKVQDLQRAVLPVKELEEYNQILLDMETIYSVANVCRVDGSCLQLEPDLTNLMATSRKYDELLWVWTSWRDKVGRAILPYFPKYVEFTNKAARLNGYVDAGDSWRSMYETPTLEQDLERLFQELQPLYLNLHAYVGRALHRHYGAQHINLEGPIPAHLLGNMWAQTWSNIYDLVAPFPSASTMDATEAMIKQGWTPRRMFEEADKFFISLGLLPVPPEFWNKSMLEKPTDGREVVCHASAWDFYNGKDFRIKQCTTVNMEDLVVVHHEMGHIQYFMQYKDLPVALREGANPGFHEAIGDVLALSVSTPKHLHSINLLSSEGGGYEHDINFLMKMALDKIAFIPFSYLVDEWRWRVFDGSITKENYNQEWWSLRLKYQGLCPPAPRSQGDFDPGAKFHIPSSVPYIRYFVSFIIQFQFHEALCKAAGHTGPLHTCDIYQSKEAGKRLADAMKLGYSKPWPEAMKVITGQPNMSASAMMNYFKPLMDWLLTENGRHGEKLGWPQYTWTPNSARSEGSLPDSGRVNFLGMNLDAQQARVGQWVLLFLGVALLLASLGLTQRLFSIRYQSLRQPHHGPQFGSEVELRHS
Assay: Inhibition of angiotensin I converting enzyme (HHL substrate, hippuric acid colorimetry, modified Cushman method)
Type: biochemical, albino rabbit
Settings: Concentration 1 µM, ACE from rabbit lung, 37°C, one hour, read-out: Inhibitory Activity on ACE (%)
property: inhibition at 1 µM (%)
Value expressed in %; do not type the unit.

Record summary for CC(=O)SCC(C)C(=O)N1Cc2cc3c(cc2C[C@H]1C(=O)O)OCO3 (stereo partly drawn) [Example 38] : reported inhibition at 1 µM = 83

Record summary for CC(CS)C(=O)N1Cc2cc3c(cc2C[C@H]1C(=O)O)OCO3 (stereo partly drawn) [Example 52] : reported inhibition at 1 µM = 60

Record summary for COc1cc2c(cc1OC)CN(C(=O)C(C)CSC(C)=O)C(C(=O)O)C2 (stereo not drawn) [Example 6] : reported inhibition at 1 µM = 62

Record summary for CC(=O)SCC(C)C(=O)N1Cc2cc(N3CCCCC3)ccc2CC1C(=O)O (stereo not drawn) [Example 44] : reported inhibition at 1 µM = 66

Record summary for CC(=O)SCC(C)C(=O)N1Cc2cc(CC(C)C)ccc2CC1C(=O)O (stereo not drawn) [Example 34] : reported inhibition at 1 µM = 63

Record summary for CC(=O)SCC(C)C(=O)N1Cc2cc(O)c(O)cc2C[C@H]1C(=O)O (stereo partly drawn) [Example 1] : reported inhibition at 1 µM = 23

----------
Molecular target: angiotensin I converting enzyme (ACE) (Oryctolagus cuniculus, UniProt P12822)
Construct: prepared from the lungs of albino rabbit according to the method described by Wallace et al; from tissue; host or cells: lungs of albino rabbit
Experiment: Inhibition of angiotensin I converting enzyme (HHL substrate, hippuric acid colorimetry, modified Cushman method)
Assay type: biochemical, albino rabbit
Details: Concentration 10 µM, ACE from rabbit lung, 37°C, one hour, read-out: Inhibitory Activity on ACE (%)
property: inhibition at 10 µM (%)
Value expressed in %; do not type the unit.

Record summary for CC(=O)SCC(C)C(=O)N1Cc2cc(CC(C)C)ccc2CC1C(=O)O (centres unmarked) [Example 34] : reported inhibition at 10 µM = 94

Record summary for CC(=O)SCC(C)C(=O)N1Cc2ccc(O)cc2CC1C(=O)O (centres unmarked) [Example 19] : reported inhibition at 10 µM = 98

Record summary for CC(C)(C)c1ccc2c(c1)CN(C(=O)C(CS)CS)C(C(=O)O)C2 (centres unmarked) [Example 71] : reported inhibition at 10 µM = 77

Record summary for CC(CS)C(=O)N1Cc2cc3c(cc2C[C@H]1C(=O)O)OCO3 (some centres unmarked) [Example 52] : reported inhibition at 10 µM = 82

Record summary for CC(=O)SCC(C)C(=O)N1Cc2cc(O)c(O)cc2C[C@H]1C(=O)O (some centres unmarked) [Example 1] : reported inhibition at 10 µM = 87

Record summary for CC(=O)SCC(C)C(=O)N1Cc2cc(N3CCCCC3)ccc2CC1C(=O)O (centres unmarked) [Example 44] : reported inhibition at 10 µM = 97

Record summary for COc1cc2c(cc1OC)CN(C(=O)C(C)CSC(C)=O)C(C(=O)O)C2 (centres unmarked) [Example 6] : reported inhibition at 10 µM = 99

Record summary for CC(=O)SCC(C)C(=O)N1Cc2cc3c(cc2C[C@H]1C(=O)O)OCO3 (some centres unmarked) [Example 38] : reported inhibition at 10 µM = 100

Record summary for COc1cc2c(cc1O)CN(C(=O)C(C)CSC(C)=O)C(C(=O)O)C2 (centres unmarked) [Example 14] : reported inhibition at 10 µM = 90

Record summary for CC(=O)SCC(C)C(=O)N1Cc2cc(C)ccc2CC1C(=O)O (centres unmarked) [Example 7] : reported inhibition at 10 µM = 88

Record summary for CC(=O)SCC(C)C(=O)N1Cc2cc(Br)ccc2CC1C(=O)O (centres unmarked) [Example 42] : reported inhibition at 10 µM = 93
